Test system: 59 cancer cell lines
protocol-summary: NCI cytotoxicity screen, full panel
Type: cell-based, human
applied-conditions: read-out: LC50 MG_MID; full panel mean-graph midpoint
property-label: CC50 (µM)
Kindly provide the numeric value in µM only, without the unit symbol.

Q. Item under review: C#Cc1cccc(Nc2ncnc3cc(OCCOC)c(OCCOC)cc23)c1 [Erlotinib, reference compound] . Reported CC50?
A. 95.6

----------
Tested on: SNB-75
protocol-summary: NCI cytotoxicity screen
Format: cell-based, human
applied-conditions: 10.0 μM one dose
Known GI % of a selection of molecules
Kindly provide the numeric value in % only, without the unit symbol.

Example cases with answers are listed next.
COc1cc(OC)cc(C(C)=NNC(=O)CSc2nc3ccccc3c(=O)n2Cc2ccc(S(N)(=O)=O)cc2)c1 ... 39
COc1cccc(C(C)=NNC(=O)CSc2nc3ccccc3c(=O)n2Cc2ccc(S(N)(=O)=O)cc2)c1 ... 22
COc1cc(C(C)=NNC(=O)CSc2nc3ccccc3c(=O)n2Cc2ccc(S(N)(=O)=O)cc2)cc(OC)c1OC ... 13

Okay, now this molecule:
Q. Find the measured GI %: item `NS(=O)(=O)c1ccc(Cn2c(=S)[nH]c3ccccc3c2=O)cc1` , target or system SNB-75.
A. 23

----------
Tested on: KM12
protocol-summary: NCI cytotoxicity screen
Type: cell-based, human
applied-conditions: 10.0 μM one dose; KM-12
property-label: GI % (%)
Kindly provide the numeric value in % only, without the unit symbol.

Example cases with answers are listed next.
COc1cc(OC)cc(C(C)=NNC(=O)CSc2nc3ccccc3c(=O)n2Cc2ccc(S(N)(=O)=O)cc2)c1 ... 30
NS(=O)(=O)c1ccc(Cn2c(SCC(=O)NN=Cc3ccccc3O)nc3ccccc3c2=O)cc1 ... 61
CCN(CC)c1ccc(C=NNC(=O)CSc2nc3ccccc3c(=O)n2Cc2ccc(S(N)(=O)=O)cc2)c(O)c1 ... 85

Q. Find the measured GI %: item `Cc1ccc(C=NNC(=O)CSc2nc3ccccc3c(=O)n2Cc2ccc(S(N)(=O)=O)cc2)cc1` , target or system KM12.
A. 14

----------
Known GI % of a selection of compounds
Tested on: HCT-116
protocol-summary: NCI cytotoxicity screen
Assay type: cell-based, human
applied-conditions: 10.0 μM one dose
Kindly provide the numeric value in % only, without the unit symbol.

COc1cc(OC)cc(C(C)=NNC(=O)CSc2nc3ccccc3c(=O)n2Cc2ccc(S(N)(=O)=O)cc2)c1 ... 17
CCN(CC)c1ccc(C=NNC(=O)CSc2nc3ccccc3c(=O)n2Cc2ccc(S(N)(=O)=O)cc2)c(O)c1 ... 79
NS(=O)(=O)c1ccc(Cn2c(SCC(=O)NN=Cc3ccccc3O)nc3ccccc3c2=O)cc1 ... 58
COc1cccc(C(C)=NNC(=O)CSc2nc3ccccc3c(=O)n2Cc2ccc(S(N)(=O)=O)cc2)c1 ... 20

Q. Item under review: Cc1ccc(NC(=O)c2ccc(CN3CCN(C)CC3)cc2)cc1Nc1nccc(-c2cccnc2)n1 [Imatinib, reference compound] . Reported GI %?
A. 18.6

----------
Known pIC50 of a selection of compounds
target-or-test-system: EGFR (Homo sapiens, UniProt P00533)
Sequence (P00533 25-1210): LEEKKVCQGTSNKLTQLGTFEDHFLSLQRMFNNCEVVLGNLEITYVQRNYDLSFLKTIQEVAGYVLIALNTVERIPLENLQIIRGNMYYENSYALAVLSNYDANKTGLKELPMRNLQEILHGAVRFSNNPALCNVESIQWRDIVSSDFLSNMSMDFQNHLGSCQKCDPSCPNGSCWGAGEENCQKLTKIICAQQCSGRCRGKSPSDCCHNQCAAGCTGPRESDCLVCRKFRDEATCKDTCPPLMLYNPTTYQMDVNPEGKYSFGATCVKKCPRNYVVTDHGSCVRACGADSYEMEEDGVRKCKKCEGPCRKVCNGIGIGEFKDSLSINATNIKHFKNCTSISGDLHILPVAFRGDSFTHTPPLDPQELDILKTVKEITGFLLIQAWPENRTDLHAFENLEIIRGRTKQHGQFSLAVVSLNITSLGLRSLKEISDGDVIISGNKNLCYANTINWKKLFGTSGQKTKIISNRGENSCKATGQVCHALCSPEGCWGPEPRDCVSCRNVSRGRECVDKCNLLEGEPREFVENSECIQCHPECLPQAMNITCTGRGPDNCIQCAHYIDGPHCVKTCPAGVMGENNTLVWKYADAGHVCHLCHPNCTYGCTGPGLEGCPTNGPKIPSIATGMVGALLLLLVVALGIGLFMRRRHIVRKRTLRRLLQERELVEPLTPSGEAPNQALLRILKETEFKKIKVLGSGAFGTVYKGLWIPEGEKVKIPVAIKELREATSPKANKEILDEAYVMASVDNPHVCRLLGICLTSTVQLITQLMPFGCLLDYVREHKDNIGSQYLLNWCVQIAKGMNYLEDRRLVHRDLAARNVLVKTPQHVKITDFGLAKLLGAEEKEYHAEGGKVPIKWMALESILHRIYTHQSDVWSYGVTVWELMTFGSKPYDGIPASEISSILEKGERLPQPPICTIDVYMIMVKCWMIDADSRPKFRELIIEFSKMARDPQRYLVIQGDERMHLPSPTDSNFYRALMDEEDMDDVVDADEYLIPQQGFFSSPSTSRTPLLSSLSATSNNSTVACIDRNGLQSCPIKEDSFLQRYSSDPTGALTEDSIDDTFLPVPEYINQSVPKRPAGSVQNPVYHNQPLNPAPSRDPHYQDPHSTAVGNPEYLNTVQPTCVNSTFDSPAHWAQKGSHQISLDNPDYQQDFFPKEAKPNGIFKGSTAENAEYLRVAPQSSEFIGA
FYI, pIC50 means -log10 of a concentration in mol per litre.

Example cases with answers are listed next.
CCN(CC)c1ccc(C=NNC(=O)CSc2nc3ccccc3c(=O)n2Cc2ccc(S(N)(=O)=O)cc2)c(O)c1 ... 7.07
NS(=O)(=O)c1ccc(Cn2c(SCC(=O)NN=Cc3ccccc3O)nc3ccccc3c2=O)cc1 ... 7.29
COc1cc(OC)cc(C(C)=NNC(=O)CSc2nc3ccccc3c(=O)n2Cc2ccc(S(N)(=O)=O)cc2)c1 ... 6.31
COc1cccc(C=NNC(=O)CSc2nc3ccccc3c(=O)n2Cc2ccc(S(N)(=O)=O)cc2)c1 ... 6.23

Okay, now this compound:
Q. Find the measured pIC50: item `Cc1ccc(C=NNC(=O)CSc2nc3ccccc3c(=O)n2Cc2ccc(S(N)(=O)=O)cc2)cc1` , target or system EGFR (Homo sapiens, UniProt P00533).
A. 6.42

----------
Hi! I'm sharing some pIC50 results obtained with CDK9 (Homo sapiens, UniProt P50750).
Sequence (P50750 whole entry): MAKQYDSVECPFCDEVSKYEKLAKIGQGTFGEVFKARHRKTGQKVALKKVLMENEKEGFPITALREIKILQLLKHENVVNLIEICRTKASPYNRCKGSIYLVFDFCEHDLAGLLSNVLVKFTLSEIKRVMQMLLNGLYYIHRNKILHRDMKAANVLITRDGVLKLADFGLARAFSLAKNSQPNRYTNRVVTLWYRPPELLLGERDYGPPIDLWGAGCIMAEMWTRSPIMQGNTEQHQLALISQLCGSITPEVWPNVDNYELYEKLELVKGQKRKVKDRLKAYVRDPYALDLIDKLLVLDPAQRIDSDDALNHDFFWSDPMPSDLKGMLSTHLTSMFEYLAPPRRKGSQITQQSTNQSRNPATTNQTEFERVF
Sequence (O60563 whole entry partner): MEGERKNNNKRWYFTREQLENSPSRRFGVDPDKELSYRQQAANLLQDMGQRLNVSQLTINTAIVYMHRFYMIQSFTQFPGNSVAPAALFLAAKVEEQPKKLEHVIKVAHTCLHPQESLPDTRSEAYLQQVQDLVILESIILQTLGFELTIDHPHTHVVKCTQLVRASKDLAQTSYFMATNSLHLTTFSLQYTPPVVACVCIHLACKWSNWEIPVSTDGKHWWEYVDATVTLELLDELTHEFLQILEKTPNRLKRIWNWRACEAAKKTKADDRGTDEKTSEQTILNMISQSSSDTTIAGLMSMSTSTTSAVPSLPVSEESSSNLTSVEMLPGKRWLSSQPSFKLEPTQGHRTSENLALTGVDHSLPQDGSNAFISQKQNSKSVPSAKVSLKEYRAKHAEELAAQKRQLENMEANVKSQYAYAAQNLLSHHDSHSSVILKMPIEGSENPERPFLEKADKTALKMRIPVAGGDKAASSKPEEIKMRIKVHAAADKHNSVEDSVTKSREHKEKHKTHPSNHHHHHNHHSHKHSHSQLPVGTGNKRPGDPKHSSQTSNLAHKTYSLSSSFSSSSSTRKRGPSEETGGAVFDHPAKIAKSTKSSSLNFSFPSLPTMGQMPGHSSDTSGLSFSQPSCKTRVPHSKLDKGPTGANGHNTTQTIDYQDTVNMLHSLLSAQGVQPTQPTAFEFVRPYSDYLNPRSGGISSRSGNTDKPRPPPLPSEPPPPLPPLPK
FYI, pIC50 means -log10 of a concentration in mol per litre.

CCN(CC)c1ccc(C=NNC(=O)CSc2nc3ccccc3c(=O)n2Cc2ccc(S(N)(=O)=O)cc2)c(O)c1 [Compound 5] ... 6.83
NS(=O)(=O)c1ccc(Cn2c(SCC(=O)NN=Cc3ccccc3O)nc3ccccc3c2=O)cc1 [Compound 6] ... 7.02
COc1cc(OC)cc(C(C)=NNC(=O)CSc2nc3ccccc3c(=O)n2Cc2ccc(S(N)(=O)=O)cc2)c1 [Compound 12] ... 6.50

Q. Item under review: COc1cccc(C=NNC(=O)CSc2nc3ccccc3c(=O)n2Cc2ccc(S(N)(=O)=O)cc2)c1 [Compound 7] . Reported pIC50?
A. 6.81

Q. Item under review: Cc1ccc(C=NNC(=O)CSc2nc3ccccc3c(=O)n2Cc2ccc(S(N)(=O)=O)cc2)cc1 [Compound 9] . Reported pIC50?
A. 6.50
